B1: NETO1 (parent)
chain: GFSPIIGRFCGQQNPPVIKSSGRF

variants of: B1; assay: protein stability index of a GFP-peptide fusion (GPS, HEK-293T) (PSI 1-6); higher = more stable; conditions: c terminus: a fixed tail appended;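 note: lentivirally expressed fusions sorted by FACS into six bins by GFP to DsRed ratio, PSI derived from sequencing read proportions per bin multiplied by bin number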
Quantity name: protein stability index
Please reply with the value in numeric form only.

What does the record list as protein stability index for "P15Q" ? 1.96

Consider next the variant "P16S" in the same way. 2.05

// query: "R23M" 1.96

Then what about the variant "F9P" ? 1.95

Then what about the variant "P16A" ? 2.03

What would you report for "P4S" ? 1.99

// query: "G1M" 1.98
